Tested on: 786-0 renal
Procedure Text: NCI-60 one-dose screen, 48 h (100 = growth as untreated, 0 = no growth, -100 = all killed)
Condition Notes: 10 µM
About 83,000 compounds went through this panel and 20% of them were active in at least one assay; those are over-represented in the sample as a whole.
The class of a record is decided solely by its measured growth; consult band A: < 50%; band B: ≥ 50% and < 90%; band C: ≥ 90%

Inquiry: State the class of the compound shown: N#CCCN1C/C(=C/c2ccccc2)C(=O)/C(=C/c2ccccc2)C1
Reply text: band A

Inquiry: Which class holds CCC(=O)N1C/C(=C/c2ccc(Cl)cc2)C(=O)/C(=C/c2ccc(Cl)cc2)C1 ?
Reply text: band A

Inquiry: Kindly identify the class of Cc1cn(C2CCCCO2)c(=O)nc1NO (stereo not drawn) .
Reply text: band C

Inquiry: Category of COc1cc(-c2nnc(-c3c(-c4ccc(F)cc4)nc4ccccn34)o2)cc(OC)c1OC :
Reply text: band B

Inquiry: Textbook exercise: identify the category of the compound given here, Nc1ccc2c(c1)C1(CCC2)NC(=O)NC1=O (stereo not drawn) , according to its measured value.
Reply text: band C

Inquiry: Place this compound in its band: O=C1NC(=O)c2ncccc21
Reply text: band C

Inquiry: Band for the recorded growth of COc1cc2c(cc1OCCCN1CCN(c3ncnc4ccccc34)CC1)N=CC1CCCN1C2=O (stereo not drawn) ?
Reply text: band A

Inquiry: Where would COc1cc(Cl)cc(-c2nn(-c3cccc(NC(=O)Nc4ccc(Cl)c(C(F)(F)F)c4)c3)cc2-c2ccncc2)c1 land among the classes by reported growth?
Reply text: band A

Inquiry: Kindly state the category for this compound: COc1ccc(OC)c(/C=C/c2nc(SC)n(-c3ccc(Cl)cc3)n2)c1
Reply text: band B

###

Tested on: SN12C renal
Procedure Text: NCI-60 one-dose screen, 48 h
Condition Notes: 10 µM
About 83,000 compounds went through this panel and 20% of them were active in at least one assay; those are over-represented in the sample as a whole. The source made the active and inactive calls. The calls were made as follows: active = growth percent below 10; inactive = the rest.
Choose the fitting class; nothing outside 1 for active, 0 for inactive is accepted.

Inquiry: So what was the verdict on COc1cc(-c2cc(/C=C/C(=O)c3ccc(N)cc3)[nH]n2)cc(OC)c1OC in this test?
Reply text: 0

Inquiry: Identify the outcome logged in this assay for the molecule shown: COc1cc(-c2cc(-c3cc4c([nH]c5ccccc54)c(-c4cc(OC)c(OC)c(OC)c4)n3)cc(-c3ccccc3)n2)cc(OC)c1OC
Reply text: 0

Inquiry: // outcome(item) with item = COc1cc(CNc2ccccc2C(=O)N2CCN(C(=O)c3cc(-c4cc(OC)c(OC)c(OC)c4)n4nc(-c5ccccc5)cc4n3)CC2)cc(OC)c1OC
Reply text: 0

Inquiry: # lookup: test call for CCCCN(CCCC)c1cc(C(=O)CCCCCN)c2ccccc2n1
Reply text: 0

Inquiry: GET /call?item= CCN(CC)CCC(=O)Nc1cccc2c1C(=O)c1c(c(O)c3ccccc3c1O)C2=O returns the recorded outcome of this test.
Reply text: 0

Inquiry: Could you check what this test reported for S=C1SCC(c2ccccc2)S1 (stereo unspecified) ?
Reply text: 0

Inquiry: GET /call?item= O=C(CCCCCCC(=O)Nc1cccnc1)NO returns the recorded outcome of this test.
Reply text: 0

Inquiry: I would be grateful if you could indicate the recorded call for O=C(N/N=C\c1cc(Cl)ccc1[N+](=O)[O-])c1ccco1 .
Reply text: 0

Inquiry: Given COc1cc(/C=N/NC(=O)c2ccccc2Nc2cccc(C(F)(F)F)c2)cc(OC)c1OC , state the outcome it received in this test.
Reply text: 0

Inquiry: Entry COc1ccc2nc3ccccc3c(NCCNCC(C)O)c2c1 (stereo unspecified) : call = ?
Reply text: 1

Inquiry: Called result for ClCCOCCn1cnc2c(Cl)nc(Cl)nc21
Reply text: 0

Inquiry: Any idea what this test logged for CN(C)c1ccc(-c2cc(-c3cccc(NS(C)(=O)=O)c3)nc(N)c2C#N)cc1 ?
Reply text: 0

Inquiry: Outcome logged for CSc1nn(-c2ccccc2)c2ncnc(Oc3ccccc3)c12 in this assay:
Reply text: 0

Inquiry: Please let me know the test result on file for Nc1c(C(=O)Nc2ccccc2Cl)sc2nc3c(cc12)C(=O)CCC3 .
Reply text: 0

Inquiry: Recorded call for CCN(CC)Cc1cc(Nc2ccnc3cc(Cl)ccc23)ccc1OC ?
Reply text: 0

Inquiry: Dear all, I need the recorded test outcome for COc1ccc(Cl)cc1C(=O)Nc1nc2ccc(Cl)cc2s1 , thank you.
Reply text: 0

###

growth values, listed per item
Test system: SW-620 colon
Procedure Text: NCI-60 one-dose screen, 48 h (100 = growth as untreated, 0 = no growth, -100 = all killed)
Condition Notes: 10 µM
About 83,000 compounds went through this panel and 20% of them were active in at least one assay; those are over-represented in the sample as a whole.
Enter your answer as a number in %; do not include the unit.

A selection of reference data follows.
{"Chemical Smiles": "Cn1c([N+](=O)[O-])cnc1/C=C1\\Oc2ccccc2C1=O", "growth [%]": -36.3}
{"Chemical Smiles": "O=C1C(=O)c2ccccc2C(O)=C1CCCc1ccc(C2CCCCCC2)cc1", "growth [%]": 32.9}
{"Chemical Smiles": "COc1ccc(Cl)cc1-n1nnc(-c2nc3ccccc3[nH]2)c1N", "growth [%]": 75.6}
{"Chemical Smiles": "CNc1ncc(-c2ccc(C(F)(F)F)cc2)c(NC2CCCCCC2)n1", "growth [%]": 77.4}
{"Chemical Smiles": "c1ccc([I+]c2ccccc2)cc1", "growth [%]": 40.8}

Inquiry: Which growth is reported for this compound? COc1ccc2c(c1)sc1nc(-c3ccccc3)c(-c3ccsc3)n12
Reply text: 19.4

Inquiry: Request the reported growth associated with CCN(CC)CCNC(=O)c1ccc(NC(C)=O)cc1
Reply text: 107

Inquiry: What value of growth has been reported for the following compound? O=[N+]([O-])c1ccc(Oc2cc(Cl)c(Cl)cc2Cl)c(C(F)(F)F)c1
Reply text: 106

###

System: OVCAR-8 ovarian
Procedure Text: NCI-60 one-dose screen, 48 h (100 = growth as untreated, 0 = no growth, -100 = all killed)
Condition Notes: 10 µM
About 83,000 compounds went through this panel and 20% of them were active in at least one assay; those are over-represented in the sample as a whole.
Assay Readout: growth (%)
State the answer as a number, implicitly in %.

{"Chemical Smiles": "COc1ccc(Nc2nc3ccc(NC(=O)NC4CCCCC4)cc3[nH]c2=O)cc1", "Measurement Unit": "%", "growth": 91.4}
{"Chemical Smiles": "Cc1ccc(C(=O)N2C/C(=C/c3ccc(F)cc3)C(=O)/C(=C/c3ccc(F)cc3)C2)cc1", "Measurement Unit": "%", "growth": 91.4}

Inquiry: Need growth of COc1ccc(Cl)cc1C(=O)Nc1nc2ccc(Cl)cc2s1 , thanks.
Reply text: 88.9

###

Tested on: ACHN renal
Procedure Text: NCI-60 one-dose screen, 48 h (100 = growth as untreated, 0 = no growth, -100 = all killed)
Condition Notes: 10 µM
About 83,000 compounds went through this panel and 20% of them were active in at least one assay; those are over-represented in the sample as a whole.
Recorded growth determines the group label, using band A = under 50%, band B = from 50% up to 90%, band C = 90% and over

{"Molecule": "Nc1c(C(=O)Nc2ccccc2)sc2nc3c(cc12)C(O)CCC3 (centres undefined)", "Group": "band A"}
{"Molecule": "COc1ccc(OC)c(/C=C/c2nnc(Nc3ccc(Cl)cc3)o2)c1", "Group": "band A"}
{"Molecule": "Cn1c([N+](=O)[O-])cnc1/C=C1\\Oc2ccc(Cl)cc2C1=O", "Group": "band A"}
{"Molecule": "N#Cc1ncc(Br)c(NC2CCCCCC2)n1", "Group": "band C"}
{"Molecule": "COc1ccc(-c2nc3sc(-c4ccc(OC)cc4)c(-c4ccc(OC)cc4)n3c2/C=C/c2ccc(C(C)C)cc2)cc1", "Group": "band C"}

Inquiry: Determine which band this molecule sits in: CCN(CC)CCNc1ccc(CO)c2oc3cc(Cl)ccc3c(=O)c12
Reply text: band B

Inquiry: Which of the defined bands does the recorded growth of COc1ccc2c(c1)O/C(=C\c1ccc([N+](=O)[O-])o1)C2=O sit within?
Reply text: band A

Inquiry: Just checking, what class would you give CN(C)CCNC(=O)c1cccn2c(=O)c3cc4ccccc4cc3nc12 here?
Reply text: band A

Inquiry: Sort into band: Cc1ccc(C(=O)N2C/C(=C/c3ccc(F)cc3)C(=O)/C(=C/c3ccc(F)cc3)C2)cc1
Reply text: band C

Inquiry: Each molecule maps to one class by growth. Which class for CCN1CCC(CCOC)(CN2c3ccccc3Sc3ccc(Cl)cc32)C1 (centres undefined) ?
Reply text: band A

Inquiry: Consider CCCCCCCCCCCCCCCCN(C(C)c1ccccc1)S(=O)(=O)c1ccc(OC)c(N)c1 (centres undefined) . To which growth class does it belong?
Reply text: band C

Inquiry: Category lookup for the molecule CC1CC(=O)OC(C)C1 (centres undefined)
Reply text: band C

Inquiry: For COc1cc(/C=N/NC(=O)c2ccccc2Nc2ccnc(C(F)(F)F)c2)ccc1O , which growth bin applies?
Reply text: band C

Inquiry: Field: class (growth) — entry: COc1cc(-c2nc(-c3nnc(-c4ccc(F)c(Cl)c4)o3)c3ccccn23)cc(OC)c1OC
Reply text: band A

Inquiry: Entry COc1ccc(-c2nn(-c3cccc(NC(=O)Nc4ccccc4)c3)cc2-c2ccncc2)cc1Cl belongs to which category?
Reply text: band A

Inquiry: // return the class label for CC1(C)CCC(=NNC(N)=S)CC1
Reply text: band C

Inquiry: Band assignment needed for COc1ccc(N2C(=O)C3c4[nH]c5ccc(OCc6ccccc6)cc5c4C4CCC(C(C)C)CC4C3C2=O)cc1 (centres undefined) please.
Reply text: band A

Inquiry: For O=C1/C(=C\c2ccc(Br)cc2)CN(C(=O)c2ccccc2F)C/C1=C\c1ccc(Br)cc1 , which growth bin applies?
Reply text: band A
